Reference for the values: patent US20190177408A1

Examples of binders with documented Inhibitory rate on pro-proliferative effect of IL-13 follow.
Target: T1, IL-4Rα on TF-1 cells (human, UniProt P24394 26-825)
T1 sequence (looked up): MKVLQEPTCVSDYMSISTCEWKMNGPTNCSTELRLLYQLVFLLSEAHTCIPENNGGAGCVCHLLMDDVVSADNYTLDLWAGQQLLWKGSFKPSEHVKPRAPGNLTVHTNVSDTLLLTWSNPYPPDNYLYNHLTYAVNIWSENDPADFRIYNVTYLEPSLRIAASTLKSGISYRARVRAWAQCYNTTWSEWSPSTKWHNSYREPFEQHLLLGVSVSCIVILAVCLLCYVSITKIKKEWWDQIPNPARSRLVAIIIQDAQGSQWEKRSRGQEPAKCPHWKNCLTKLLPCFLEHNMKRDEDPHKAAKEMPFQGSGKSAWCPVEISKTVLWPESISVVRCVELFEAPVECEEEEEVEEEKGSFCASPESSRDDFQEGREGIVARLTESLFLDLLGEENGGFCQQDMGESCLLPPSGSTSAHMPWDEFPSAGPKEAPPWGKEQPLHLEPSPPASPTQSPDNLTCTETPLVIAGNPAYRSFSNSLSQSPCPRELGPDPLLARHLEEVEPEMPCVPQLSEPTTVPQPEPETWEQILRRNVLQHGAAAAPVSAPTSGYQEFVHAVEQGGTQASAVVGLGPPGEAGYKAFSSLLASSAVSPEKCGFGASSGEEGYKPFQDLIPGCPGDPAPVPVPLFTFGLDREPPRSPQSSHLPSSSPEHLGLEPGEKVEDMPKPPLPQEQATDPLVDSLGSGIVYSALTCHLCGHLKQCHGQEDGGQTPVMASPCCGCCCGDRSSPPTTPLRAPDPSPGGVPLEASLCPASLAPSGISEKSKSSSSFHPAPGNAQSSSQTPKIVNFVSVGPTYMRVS
Test: cell-based or functional assay

In the examples that follow, each entry is paired with its recorded Inhibitory rate on pro-proliferative effect of IL-13.
BINDER | ASSAY_VALUE
L1021H1016 (antibody, V domains shown, human kappa) VH: EVQLVQSGGGLVHPGGSLRLSCAGSGFTFSRNAMFWVRQAPGKGLEWVSGIGTGGATNYADSVKGRFTISRDNAKNSLYLQMNSLRAEDMAVYYCARGRYYFPWWGQGTLVTVSS VL: EIVLTQSPGTLSLSPGERATLSCRASQSVSSSYLAWYQQKPGQAPRLLIFGASSRAPGIPDRFSGSGSGTDFTLTISRLEPEDFAVYYCQQYDHSAGWTFGQGTKVEIK | 0.94
L1021H1029 (antibody, V domains shown, human kappa) VH: EVQLVESGGGLVQPGGSLRLSCAASGFTFSRNAMFWVRQAPGKGLEWVSGIGTGGATSYADSVKGRFTISRDNAKNSLYLQMNSLRAEDMAVYYCARGRYYFPWWGQGTLVTVSS VL: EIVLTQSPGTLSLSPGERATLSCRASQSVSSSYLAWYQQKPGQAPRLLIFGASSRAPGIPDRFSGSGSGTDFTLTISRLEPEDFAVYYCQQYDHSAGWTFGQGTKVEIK | 0.92

# lookup: Inhibitory rate on pro-proliferative effect of IL-13 of L1021H1031 (antibody, V domains shown, human kappa) VH: EVQLVESGGGLVQPGGSLRLSCAASGFTFSRNAMFWVRQAPGKGLEWVSGIGTGGATSYADSVKGRFTISRDNAKNSLYLQMNSLRAEDTAVYYCARGRYYFDYWGQGTLVTVSS VL: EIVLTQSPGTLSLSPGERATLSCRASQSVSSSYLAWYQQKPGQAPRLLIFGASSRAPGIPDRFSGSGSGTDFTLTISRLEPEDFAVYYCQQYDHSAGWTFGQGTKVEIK 0.93
